These measurements were taken from ChEMBL document CHEMBL5244269.

# PROTOCOL_DETAILS: Metabolic stability in dog liver microsomes assessed as intrinsic clearance
# Format: ADME, Canis lupus familiaris, Microsome
# ASSAY_CONTEXT: read-out: CLH
RECORDED_METRIC: microsomal CLint (µL/min/mg)
Expressed in µL/min/mg, but write only the number.

Briefly, microsomal CLint measured for Cc1ncc(-c2nc3c(OC4(C)CC4)nc(Nc4cnn(C5CCN(C)CC5)c4)nc3cc2F)cn1 : 21

---

# PROTOCOL_DETAILS: Metabolic stability in human liver microsomes assessed as intrinsic clearance
# Type: ADME, Microsome
# ASSAY_CONTEXT: read-out: CLH
Label rule met when microsomal CLint is at or above 40 µL/min/mg; anything below gets rule not met.

INSERT INTO assay_data (given_smiles, discrete_label) VALUES
  ('CN1CCC(n2cc(Nc3nc(OC4(C)CC4)c4nc(-c5cccnc5)ccc4n3)cn2)CC1', 'rule met'),
  ('Cc1nc2c(OC3(C)CC3)nc(Nc3cnn(C4CC5(C4)CN(C)C5)c3)nc2cc1F', 'rule not met'),
  ('CC(=O)N1CCC(n2cc(Nc3nc(NC4CCOCC4)c4nc(CC#N)ccc4n3)cn2)CC1', 'rule not met'),
  ('CC(=O)N1CCC(n2cc(Nc3nc(OC4CCOCC4)c4nc(C)ccc4n3)cn2)CC1', 'rule not met'),
  ('CC(=O)N1CCC(n2cc(Nc3nc(OC4CCOCC4)c4nc(CC#N)ccc4n3)cn2)CC1', 'rule not met'),
  ('Cc1ncc(-c2ccc3nc(Nc4cnn(C5CCN(C)CC5)c4)nc(OC4(C)CC4)c3n2)cn1', 'rule met'),
  ('CN1CCC(n2cc(Nc3nc(OC4(C)CC4)c4nc(C(=O)N(C)C)ccc4n3)cn2)CC1', 'rule not met'),
  ('Cc1ncncc1-c1nc2c(OC3(C)CC3)nc(Nc3cnn(C4CCN(C)CC4)c3)nc2cc1F', 'rule met');

Read the next record carefully.
# input Decide: is the reported value of microsomal CLint for Cc1ncncc1-c1ccc2nc(Nc3cnn(C4CCN(C)CC4)c3)nc(OC3(C)CC3)c2n1 equal to or greater than 40 µL/min/mg?
# output rule met
